Compiled record: Ki values for Sodium-dependent noradrenaline transporter (Homo sapiens) across several sources.
reported_property: Ki (µM)

> print(dat)
                                smiles.data                                 tested.on  unit.of.measure  numeric.result
1  COc1ccc(F)cc1C[C@](O)(C1CCCC1)[C@@H]1CNCCO1  Sodium-dependent noradrenaline transporter (Homo sapiens)               µM          0.0108
2  N#Cc1ccc2[nH]cc([C@H]3CC[C@H](N4CCc5ccccc5C4)CC3)c2c1  Sodium-dependent noradrenaline transporter (Homo sapiens)               µM           0.184
3        Fc1cccc(Cl)c1Oc1cccc(F)c1OC1CCNCC1  Sodium-dependent noradrenaline transporter (Homo sapiens)               µM           0.218

[I] CCc1ccccc1Oc1cc(C)ncc1CN(C)C
[II] CN(C)Cc1ccccc1Sc1ccc(CCCF)cc1N
[III] CCN(Cc1ccccc1C(F)(F)F)C1CCNCC1
[IV] Oc1cccc(F)c1-n1nc(OC2CCNCC2)c2c1CCCC2
[V] C[C@@H]1CCCN1CCCOc1ccc(-c2ccc(=O)[nH]n2)cc1
stdin: Endpoint returns the given compounds ordered by ascending Ki. Put the labels in the requested order and list them out.
stdout: I, III, II, IV, V
(I: 0.027 µM, III: 0.061 µM, II: 0.219 µM, IV: 2.9 µM, V: 10 µM)

====

Ki values for Sodium-dependent noradrenaline transporter (Homo sapiens), compiled from several publications.
reported_property: Ki (nM)

[a] CNCCC(Oc1cccc2ccccc12)c1ccc(Br)cc1 (centres undefined)
[b] COc1ccccc1S[C@@H](c1ccccc1)[C@@H]1CNCCO1
[c] CC(C)C(=O)N(Cc1cccc(Cl)c1Cl)[C@H]1CCNC1
[d] Cc1ccc(Sc2ccccc2CN(C)C)c(N)c1
stdin: # rank_down: sort by Ki, max first Please list the labels according to the requested order.
stdout: d, a, c, b

[1] Fc1ccccc1Oc1ncccc1C1CCNCC1
[2] N#Cc1ccc2[nH]cc([C@H]3CC[C@H](N4CCc5cc(OCCCF)ccc5C4)CC3)c2c1
stdin: Look at 1 and 2 . Which one has the lower recorded Ki number? Answer format: the label of the selected item.
stdout: 2
(2: 102 nM, 1: 536 nM)

[1] CC(C)CN(C(=O)c1cccc(F)c1Cl)[C@H]1CCNC1
[2] COc1cc(F)ccc1O[C@@H](c1ccccc1)[C@@H]1CNCCO1
stdin: Lower value of Ki belongs to which: 1 or 2 ? In your reply, give the label of the chosen option.
stdout: 2
(2: 6 nM, 1: 67 nM)

[a] CNCc1cc(C#CCCN(C)C2CC2)ccc1Oc1ccc(SC)cc1
[b] CNCCC(Oc1cccc2ccccc12)c1cccc(C(F)(F)F)c1 (centres undefined)
[c] CN(C)Cc1cc(F)ccc1Sc1ccc(CO)cc1N
stdin: // ranking: key=Ki, reverse=True The labels, placed in the requested order, form the answer.
stdout: c, a, b

====

A compilation of published Ki results with Sodium-dependent noradrenaline transporter (Homo sapiens).
Sequence (P23975 whole entry): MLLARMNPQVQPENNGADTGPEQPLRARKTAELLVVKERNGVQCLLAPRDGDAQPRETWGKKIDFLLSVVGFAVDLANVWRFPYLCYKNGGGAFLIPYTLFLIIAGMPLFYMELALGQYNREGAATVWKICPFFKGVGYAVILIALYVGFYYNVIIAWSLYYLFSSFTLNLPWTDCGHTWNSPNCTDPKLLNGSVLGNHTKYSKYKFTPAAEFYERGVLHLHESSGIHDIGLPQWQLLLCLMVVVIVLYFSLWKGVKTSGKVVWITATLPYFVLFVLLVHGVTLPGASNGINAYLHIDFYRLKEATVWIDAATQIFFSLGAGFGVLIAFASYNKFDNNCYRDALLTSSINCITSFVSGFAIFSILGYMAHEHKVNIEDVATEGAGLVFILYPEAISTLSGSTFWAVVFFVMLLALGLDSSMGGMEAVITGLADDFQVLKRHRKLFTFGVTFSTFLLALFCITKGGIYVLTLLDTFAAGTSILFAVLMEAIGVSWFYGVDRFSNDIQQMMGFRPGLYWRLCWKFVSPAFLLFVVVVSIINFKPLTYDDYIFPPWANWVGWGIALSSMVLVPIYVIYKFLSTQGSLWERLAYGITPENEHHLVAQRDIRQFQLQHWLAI
reported_property: Ki (µM)

Answered examples (8):
> print(dat)
                                   compound  reported.property  numeric.result
1              c1ccc(COc2ccccc2C2CCNCC2)cc1                 Ki           0.076
2  Cc1cccc(F)c1Oc1cccc(F)c1OC1CCNC1 (stereo not drawn)                 Ki           0.328
3              CSc1ccccc1CN(CC(C)C)C1CCNCC1                 Ki          0.0033
4  OC1([C@@H](CN2CCNCC2)c2cccc(Cl)c2)CCCCC1                 Ki           0.214
5            CC(C)CN(Cc1ccc(F)cc1F)C1CCNCC1                 Ki            0.02
6  CNCCC(Oc1cccc2ccccc12)c1cccc(OC)c1 (stereo not drawn)                 Ki           0.081
7  C[C@H](NC(=O)c1cn(C2(C#N)CC2)cn1)C(=O)Nc1nc(-c2cccc(-c3ccn(C)n3)c2)cs1                 Ki            8.27
8           CN(C)Cc1cc(OCCCF)ccc1Sc1ccccc1N                 Ki           0.012

[I] CCCc1ccccc1Oc1cc(C)ncc1CN(C)C
[II] CC(C)Oc1ccccc1C[C@@](O)(c1ccccc1)[C@@H]1CNCCO1
stdin: I or II : whose Ki is greater? State the label of the item chosen.
stdout: I
(I: 0.159 µM, II: 0.0077 µM)

[P] Fc1ccc(Oc2ncccc2C2CCNCC2)c(F)c1
[Q] CC(C)OCCN(Cc1ccc(F)cc1C(F)(F)F)C1CCNCC1
[R] [11CH3]Oc1cccc2c1CCN(CCCc1c[nH]c3ccc(F)cc13)C2
[S] CCc1ccc(Sc2ccccc2CN(C)C)c(N)c1
stdin: Could you please order the items by Ki, going from the lowest number to the highest? Return value: ordered labels per request.
stdout: Q, P, S, R
(Q: 0.0097 µM, P: 0.143 µM, S: 0.37 µM, R: 2.88 µM)

[P] CN(C)CC(c1ccccc1Cl)C1(O)CCCCC1 (stereo not drawn)
[Q] CCOCCN(Cc1ccc(F)cc1C(F)(F)F)C1CCNCC1
stdin: Hey, which is lower on measured Ki, P or Q ? Identify your selection by its label.
stdout: Q

====

Target or system Sodium-dependent noradrenaline transporter (Homo sapiens); metric Ki; compiled from varied reports.
reported_property: Ki (nM)

Consider the following illustrative entries.
> print(dat)
                                   molecule  numeric.result
1    CC(C)CN(C(=O)c1ccccc1C(C)C)[C@H]1CCNC1              65
2  CNCCC(Oc1cccc2ccccc12)c1ccccc1C (stereo unspecified)             110
3              Fc1ccccc1Oc1cccc(F)c1OC1CNC1             507

[a] CC(C)CN(C(=O)c1ccc(Cl)cc1Cl)[C@H]1CCNC1
[b] OCCN(Cc1ccc(F)cc1C(F)(F)F)C1CCNCC1
stdin: Given the listed items, does a or b have the lesser reported Ki? Identify your selection by its label.
stdout: a
(a: 37 nM, b: 95.9 nM)

[I] c1cncc([C@@H]2CN3CCC[C@@H]3c3cc(OCCCN4CCCCC4)ccc32)c1
[II] Cc1ccc(CN(CC(C)C)C2CCNCC2)c(C)c1
[III] [11CH3]Oc1ccc2c(c1)CCN(CCCc1c[nH]c3ccc(Br)cc13)C2
[IV] CC(C)CN(Cc1ccccc1Cl)C1CCNCC1
stdin: Order the records by Ki, with each subsequent value no larger than the one before. Please express your ranking as an ordered list of the labels.
stdout: III, I, II, IV

====

Please find below Ki measurements for Sodium-dependent noradrenaline transporter (Homo sapiens), combined from several publications.
reported_property: Ki (nM)

> print(dat)
                                   molecule  unit.of.measure  numeric.result
1  CSc1ccccc1O[C@@H](c1ccccc1)[C@@H]1CNCCO1               nM            2.06

[A] O=C(c1cccc(Cl)c1Cl)N(CC(F)(F)F)[C@H]1CCNC1
[B] CNCc1ccccc1Sc1ccc(CO)cc1N
stdin: Quick check, higher Ki between A and B ? Label of pick, please.
stdout: B

[a] CN(CCCc1cccc(F)c1)[C@H]1C2C3CC4C2C(=O)C2C4C3C21 (some centres not stated)
[b] O[C@](Cc1ccccc1Cl)(c1ccccc1)[C@@H]1CNCCO1
[c] COc1ccc(Sc2ccccc2N)c(CN(C)C)c1
[d] Fc1cccc(Cl)c1Oc1ncccc1OC1CNC1
[e] CNC[C@@H](O)CN1c2ccccc2CCc2ccccc21
stdin: Hey, quick one: sort these by Ki, low to high? Response format: the labels, sorted as the prompt asks.
stdout: e, c, b, d, a

====

pKi: −log10 of the molar value.
Consider the following pKi data for Sodium-dependent noradrenaline transporter (Homo sapiens, UniProt P23975), collected from several reports.
reported_property: pKi

[a] CN1CCN(CC(c2ccc(F)cc2)C2(O)CCCCC2)CC1 (configuration not stated)
[b] Cc1cccc(CN(CC(C)C)C2CCNCC2)c1
stdin: For this pair, a and b , which shows a numerically higher pKi? Indicate your choice by writing its label.
stdout: b

[a] OC1(C(CN2CCNCC2)c2ccc(F)cc2)CCCCC1 (configuration not stated)
[b] CN(C)Cc1cc(OCCCO)ccc1Sc1ccccc1N
stdin: Look at a and b . Which one has the lower recorded pKi number? Answer = label.
stdout: a
